# test_summary: in vivo
# test_context: male, Sprague-Dawley, plasma; rat, IV (intravenous); read-out: T½ (terminal half life) (converted)
outcome_measure: half-life (h)

1. COc1cc2c(cc1OC)C(=O)C(F)(CC1(F)CCN(Cc3ccc(F)cc3)CC1)C2 (centres unmarked); 3.1
2. COc1cc2c(cc1OC)C(=O)C(F)(CC1(F)CCN(Cc3ccccc3)CC1)C2 (centres unmarked); 8.5

====

# test_summary: in vivo
# test_context: male, Sprague-Dawley, plasma; rat, SC (subcutaneous); read-out: T½ (terminal half life) (converted)
outcome_measure: half-life (h)

1) COc1cc2c(cc1OC)C(=O)C(F)(CC1(F)CCN(Cc3ccc(F)cc3)CC1)C2 (centres unmarked); 7.9
2) COc1cc2c(cc1OC)C(=O)C(F)(CC1(F)CCN(Cc3ccccc3)CC1)C2 (centres unmarked); 6.8

====

# test_summary: in vivo
# test_context: male, Sprague-Dawley, plasma; rat, IV (intravenous); read-out: F (bioavailability)
outcome_measure: bioavailability (%)

1. COc1cc2c(cc1OC)C(=O)C(F)(CC1(F)CCN(Cc3ccccc3)CC1)C2 (centres unmarked); 100
2. COc1cc2c(cc1OC)C(=O)C(F)(CC1(F)CCN(Cc3ccc(F)cc3)CC1)C2 (centres unmarked); 100

====

# test_summary: Acute toxicity in mice (LD50)
# test_context: both sexes, mouse, in vivo; CD-1 mice, dosed orally (PO), 7-day acute toxicity
Entries and their LD50 at 7 day values follow.
outcome_measure: LD50 at 7 day

1) COc1cc2c(cc1OC)C(=O)C(F)(CC1(F)CCN(Cc3ccc(F)cc3)CC1)C2 (stereo not drawn) [IV-11]; > 50 mg/kg
2) COc1cc2c(cc1OC)C(=O)C(F)(CC1(F)CCN(Cc3ccccc3)CC1)C2 (stereo not drawn) [IV-8]; > 45 mg/kg
3) COc1cc2c(cc1OC)C(=O)C(CC1(F)CCN(Cc3ccccc3)CC1)C2 (stereo not drawn) [IV-4]; 30 mg/kg

====

Entries and their half-life values follow.
# test_summary: in vivo
# test_context: male, Sprague-Dawley, plasma; rat, PO (oral); read-out: T½ (terminal half life) (converted)
outcome_measure: half-life

1) COc1cc2c(cc1OC)C(=O)C(F)(CC1(F)CCN(Cc3ccccc3)CC1)C2 (centres unmarked) [IV-8]; 12.7 h
2) COc1cc2c(cc1OC)C(=O)C(F)(CC1(F)CCN(Cc3ccc(F)cc3)CC1)C2 (centres unmarked) [IV-11]; 11.8 h

meta.source: patent US9249098B2
